Hey, just so you know, these numbers are from patent US20150166606A1.

- test-system: Activated human plasma kallikrein (Enzyme Research Laboratories, HPKa 1303) (human, UniProt P03952 20-638)
- Sequence (P03952 20-638 limits assumed): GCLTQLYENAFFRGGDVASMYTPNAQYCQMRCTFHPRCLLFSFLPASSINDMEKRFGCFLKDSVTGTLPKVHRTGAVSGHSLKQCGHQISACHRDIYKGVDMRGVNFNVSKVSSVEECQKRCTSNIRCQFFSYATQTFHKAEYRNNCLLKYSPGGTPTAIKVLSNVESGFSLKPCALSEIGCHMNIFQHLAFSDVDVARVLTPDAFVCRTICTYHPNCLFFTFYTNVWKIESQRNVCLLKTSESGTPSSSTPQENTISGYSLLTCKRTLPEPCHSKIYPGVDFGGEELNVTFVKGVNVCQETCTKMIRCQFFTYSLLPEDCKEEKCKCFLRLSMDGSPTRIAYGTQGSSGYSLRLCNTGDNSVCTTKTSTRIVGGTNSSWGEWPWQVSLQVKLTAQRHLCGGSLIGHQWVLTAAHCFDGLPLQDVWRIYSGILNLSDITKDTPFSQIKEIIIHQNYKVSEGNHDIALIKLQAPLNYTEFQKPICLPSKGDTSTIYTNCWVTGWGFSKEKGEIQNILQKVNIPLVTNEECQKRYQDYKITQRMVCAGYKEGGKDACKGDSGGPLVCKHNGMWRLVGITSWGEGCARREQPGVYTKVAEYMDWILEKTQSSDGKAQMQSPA
- experiment: cell-based or functional assay
Bridge positions count the residues as written; N and C are the ends. Square brackets hold non-standard residues; d marks the D form. Primed or numbered codes have the meaning given here. mXylyl = xylyl linker from dibromoxylene joining the two cysteines; 4‑BZA = 2-amino-3-(4-carbamimidoylphenyl)propanoic acid; des‑NH2 = missing amino-terminal amine group; Phe(3-Cl) = N[C@@H](Cc1cccc(Cl)c1)C(=O)O; Phe(4-Cl) = N[C@@H](Cc1ccc(Cl)cc1)C(=O)O; Phe(4-amidino)′ = not defined here; dPhg = N[C@@H](C(=O)O)c1ccccc1; Chg = N[C@H](C(=O)O)C1CCCCC1; Phg = N[C@H](C(=O)O)c1ccccc1; Tle = CC(C)(C)[C@H](N)C(=O)O; Thp = NC1(C(=O)O)CCOCC1; Ac3c = NC1(C(=O)O)CC1; Aib = CC(C)(N)C(=O)O; Mpa = O=C(O)CCS
Decide by Avg. IC50: equal to or exceeding 300 nM means condition met, less means condition not met.

binder="[Mpa][Ac3c][Chg]CR[Tle]-NH2 (linker 1-4 via mXylyl) [R2177]" group_label="condition not met"
binder="[Mpa][Thp][Chg]CR[Tle]-NH2 (linker 1-4 via mXylyl) [R2182]" group_label="condition not met"
binder="{des‑NH2}-C[Aib]A[Chg]CR-{3,3‑dimethylbutan‑2‑amine} (linker 1-5 via mXylyl) [R2152]" group_label="condition met"
binder="{des‑NH2}-CP[Chg]CRV-NHMe (linker 1-4 via mXylyl) [R2184]" group_label="condition not met"
binder="{des‑NH2}-CP[dPhg]C[Phe(4-Cl)][Tle]-NH2 (linker 1-4 via mXylyl) [R2206]" group_label="condition met"

**Q:** Tell me whether Avg. IC50 is at least 300 nM here: {des‑NH2}-CP[Phg]C[Phe(3-Cl)][Tle]-NH2 (linker 1-4 via mXylyl) [R2207]
**A:** condition met

**Q:** Tell me whether Avg. IC50 is at least 300 nM here: [Mpa][Thp]A[Chg]C[4‑BZA]V-NH2 (linker 1-5 via mXylyl) [R2166]
**A:** condition met

**Q:** Tell me whether Avg. IC50 is at least 300 nM here: {des‑NH2}-CP[Phg]C[Phe(4-amidino)′]V-NH2 (linker 1-4 via mXylyl) [R2215]
**A:** condition met
